Values were extracted from ChEMBL document CHEMBL1153208.

- ASSAYED SYSTEM: C5a anaphylatoxin chemotactic receptor 1 (Homo sapiens, UniProt P21730)
- EXPERIMENT: Displacement of [125I]human anaphylatoxin C5a from human C5a receptor expressed in CHO cells co-expressed with Galpha16 after 1 hr
- Assay type: cell-based
READOUT LABEL: pIC50
Please note pIC50 is a logarithmic value: minus log10 of concentration in mol/L. Answer with that number alone.

Using the record for Cc1ccc(S(=O)(=O)N(C)c2ccccc2C(=O)c2ccsc2)cc1 , report its pIC50.
5.77

Try Cc1ccc(S(=O)(=O)N(C)c2ccccc2N(C)S(=O)(=O)c2ccc(C)cc2)cc1 next.
6.70

Try Cc1ccc(S(=O)(=O)N(C)c2ccc(Cl)cc2C(=O)c2ccccc2)cc1 next.
5.06

Try C=CCN(c1ccccc1N(CC=C)S(=O)(=O)c1ccc(C)cc1)S(=O)(=O)c1ccc(C)cc1 next.
6.52

Try Cc1ccc(S(=O)(=O)N(C)c2ccc(Br)cc2C(=O)c2ccccc2)cc1 next.
4.84

Try Cc1ccc(S(=O)(=O)N(C)c2ccccc2C(=O)N2CCc3ccccc32)cc1 next.
4.35

* * *

- ASSAYED SYSTEM: C5a anaphylatoxin chemotactic receptor 1 (Homo sapiens)
- Sequence (P21730 whole entry): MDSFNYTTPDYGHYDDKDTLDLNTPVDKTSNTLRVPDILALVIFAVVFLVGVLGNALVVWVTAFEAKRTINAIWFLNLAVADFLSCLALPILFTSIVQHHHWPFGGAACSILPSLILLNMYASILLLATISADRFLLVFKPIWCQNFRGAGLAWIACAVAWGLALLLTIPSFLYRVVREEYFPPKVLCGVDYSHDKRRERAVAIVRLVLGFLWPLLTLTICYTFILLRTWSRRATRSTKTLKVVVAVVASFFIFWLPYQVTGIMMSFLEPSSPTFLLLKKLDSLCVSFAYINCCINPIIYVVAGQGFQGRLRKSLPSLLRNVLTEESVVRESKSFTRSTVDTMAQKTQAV
- EXPERIMENT: Antagonist activity at human C5a receptor expressed in CHO cells co-expressed with Galpha16 assessed as inhibition of anaphylatoxin C5a-induced intracellular calcium accumulation after 10 mins by FLIPR assay
- Assay type: functional, cell-based
READOUT LABEL: pIC50
Please note pIC50 is a logarithmic value: minus log10 of concentration in mol/L. Answer with that number alone.

Using the record for Cc1ccc(S(=O)(=O)N(C)c2ccccc2C(=O)N2CCc3ccccc32)cc1 , report its pIC50.
4.42

Try Cc1ccc(S(=O)(=O)N(C)c2ccccc2C(=O)c2ccsc2)cc1 next.
6.22

* * *

- ASSAYED SYSTEM: P2Y purinoceptor 2 (Homo sapiens)
- Sequence (P41231 whole entry): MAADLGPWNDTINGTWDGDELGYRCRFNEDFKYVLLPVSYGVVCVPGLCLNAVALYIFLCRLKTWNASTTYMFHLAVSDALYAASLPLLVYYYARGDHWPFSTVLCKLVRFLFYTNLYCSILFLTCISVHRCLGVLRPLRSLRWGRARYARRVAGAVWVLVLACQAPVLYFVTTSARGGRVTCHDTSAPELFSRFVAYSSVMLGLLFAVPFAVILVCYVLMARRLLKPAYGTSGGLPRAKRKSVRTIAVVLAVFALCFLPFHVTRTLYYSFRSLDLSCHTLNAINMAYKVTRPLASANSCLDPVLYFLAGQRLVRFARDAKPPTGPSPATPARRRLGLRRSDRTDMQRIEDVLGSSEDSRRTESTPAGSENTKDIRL
- EXPERIMENT: Inhibition of human P2Y2 receptor expressed in CHO cells
- Assay type: cell-based
I'd be grateful if you could share measured IC50 for these entries.

Using the record for C=CCN(c1ccccc1N(CC=C)S(=O)(=O)c1ccc(C)cc1)S(=O)(=O)c1ccc(C)cc1 , report its IC50.
> 60 µM

Try Cc1ccc(S(=O)(=O)N(C)c2ccccc2N(C)S(=O)(=O)c2ccc(C)cc2)cc1 next.
> 60 µM

Try Cc1ccc(S(=O)(=O)N(C)c2ccccc2C(=O)c2ccsc2)cc1 next.
> 60 µM

* * *

- ASSAYED SYSTEM: C5a anaphylatoxin chemotactic receptor 1 (Homo sapiens, UniProt P21730)
- EXPERIMENT: Antagonist activity at C5a receptor in human PMNC assessed as inhibition of anaphylatoxin C5a-induced intracellular calcium accumulation after 10 mins by FLIPR assay
- Type: functional, cell-based
I'd be grateful if you could share measured pIC50 for these entries.
Please note pIC50 is a logarithmic value: minus log10 of concentration in mol/L. Answer with that number alone.

API: value(readout=pIC50, system=C5a anaphylatoxin chemotactic receptor 1 (Homo sapiens, UniProt P21730)) for record C=CCN(c1ccccc1N(CC=C)S(=O)(=O)c1ccc(C)cc1)S(=O)(=O)c1ccc(C)cc1
7.23

Try Cc1ccc(S(=O)(=O)N(C)c2ccccc2N(C)S(=O)(=O)c2ccc(C)cc2)cc1 next.
8.17

Try Cc1ccc(S(=O)(=O)N(C)c2ccccc2C(=O)c2ccsc2)cc1 next.
6.40
